Target: T1, antigen (11A12) containing the ED-A domain of human fibronectin (human, UniProt P02751 1629-1905)
T1 construct: Immobilised on a CM5 chip by amine coupling
T1 sequence (P02751 other isoform, or with tags, fused parts or gaps limits assumed): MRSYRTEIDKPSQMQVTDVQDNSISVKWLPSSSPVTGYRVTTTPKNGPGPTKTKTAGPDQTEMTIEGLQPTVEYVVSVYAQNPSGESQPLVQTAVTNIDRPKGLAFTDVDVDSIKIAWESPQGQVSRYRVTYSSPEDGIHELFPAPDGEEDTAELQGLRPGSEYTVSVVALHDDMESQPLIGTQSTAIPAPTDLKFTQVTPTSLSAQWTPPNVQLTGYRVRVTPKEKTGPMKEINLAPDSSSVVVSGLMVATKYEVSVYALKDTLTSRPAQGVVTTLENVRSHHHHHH
Assay: SPR (BIAcore), monomeric scFv over 11A12 immobilised on CM5 chip
pKd: −log10 of the molar value.
Let's look at some binders and their measured pKd.

binder: anti-ED-A antibody B2 (scFv, scFv; Supernatant in BIAcore analysis 1, purified monomeric fraction in BIAcore analysis 2) scFv: EVQLVESGGGLVQPGGSLRLSCAASGFTFSAAKMSWVRQAPGKGLEWVSAISGSGGSTYYADSVKGRFTISRDNSKNTLYLQMNSLRAEDTAVYYCAKSTHLYLFDYWGQGTLVTVSSGGGGSGGGGSGGGGSGGGGSEIVLTQSPGTLSLSPGEKATLSCRASQSVSVAFLAWYQQKPGQAPRLLIYGASSRATGIPDRFSGSGSGTDFTLTISRLEPEDFAVYYCQQMRGRPPTFGQGTKVEIKAAAEQKLISEEDLNGAA
readoutValue: ~7.70

Value of pKd reported for the binder anti-ED-A antibody C5 (scFv, scFv; Supernatant in BIAcore analysis 1, purified monomeric fraction in BIAcore analysis 2) scFv: EVQLVESGGGLVQPGGSLRLSCAASGFTFSPITMSWVRQAPGKGLEWVSAISGSGGSTYYADSVKGRFTISRDNSKNTLYLQMNSLRAEDTAVYYCAKSTHLYLFDYWGQGTLVTVSSGGGGSGGGGSGGGGSGGGGSEIVLTQSPGTLSLSPGEKATLSCRASQSVSLHFLAWYQQKPGQAPRLLIYGASSRATGIPDRFSGSGSGTDFTLTISRLEPEDFAVYYCQQMRGRPPTFGQGTKVEIKAAAEQKLISEEDLNGAA is ~7.52

Value of pKd reported for the binder anti-ED-A antibody C8 (scFv, scFv; Supernatant in BIAcore analysis 1, purified monomeric fraction in BIAcore analysis 2) scFv: EVQLVESGGGLVQPGGSLRLSCAASGFTFSLQTMSWVRQAPGKGLEWVSAISGSGGSTYYADSVKGRFTISRDNSKNTLYLQMNSLRAEDTAVYYCAKSTHLYLFDYWGQGTLVTVSSGGGGSGGGGSGGGGSGGGGSEIVLTQSPGTLSLSPGEKATLSCRASQSVSLPFLAWYQQKPGQAPRLLIYGASSRATGIPDRFSGSGSGTDFTLTISRLEPEDFAVYYCQQMRGRPPTFGQGTKVEIKAAAEQKLISEEDLNGAA is ~7.85

Value of pKd reported for the binder anti-ED-A antibody B7 (scFv, scFv; Supernatant in BIAcore analysis 1, purified monomeric fraction in BIAcore analysis 2) scFv: EVQLVESGGGLVQPGGSLRLSCAASGFTFSHFDMSWVRQAPGKGLEWVSAISGSGGSTYYADSVKGRFTISRDNSKNTLYLQMNSLRAEDTAVYYCAKSTHLYLFDYWGQGTLVTVSSGGGGSGGGGSGGGGSGGGGSEIVLTQSPGTLSLSPGEKATLSCRASQSVSLAFLAWYQQKPGQAPRLLIYGASSRATGIPDRFSGSGSGTDFTLTISRLEPEDFAVYYCQQMRGRPPTFGQGTKVEIKAAAEQKLISEEDLNGAA is ~7.77

Value of pKd reported for the binder anti-ED-A antibody G9 (scFv, scFv; Supernatant in BIAcore analysis 1, purified monomeric fraction in BIAcore analysis 2) scFv: EVQLVESGGGLVQPGGSLRLSCAASGFTFSHMQMSWVRQAPGKGLEWVSAISGSGGSTYYADSVKGRFTISRDNSKNTLYLQMNSLRAEDTAVYYCAKSTHLYLFDYWGQGTLVTVSSGGGGSGGGGSGGGGSGGGGSEIVLTQSPGTLSLSPGEKATLSCRASQSVSTAFLAWYQQKPGQAPRLLIYGASSRATGIPDRFSGSGSGTDFTLTISRLEPEDFAVYYCQQMRGRPPTFGQGTKVEIKAAAEQKLISEEDLNGAA is ~7.68

Value of pKd reported for the binder anti-ED-A antibody F8 (scFv, scFv format, not the F8 diabody; Supernatant in BIAcore analysis 1, purified monomeric fraction in BIAcore analysis 2; also called anti-ED-A scFv F8) scFv: EVQLVESGGGLVQPGGSLRLSCAASGFTFSLFTMSWVRQAPGKGLEWVSAISGSGGSTYYADSVKGRFTISRDNSKNTLYLQMNSLRAEDTAVYYCAKSTHLYLFDYWGQGTLVTVSSGGGGSGGGGSGGGGSGGGGSEIVLTQSPGTLSLSPGEKATLSCRASQSVSMPFLAWYQQKPGQAPRLLIYGASSRATGIPDRFSGSGSGTDFTLTISRLEPEDFAVYYCQQMRGRPPTFGQGTKVEIKAAAEQKLISEEDLNGAA is ~8.51

Value of pKd reported for the binder anti-ED-A antibody D5 (scFv, scFv; Supernatant in BIAcore analysis 1, purified monomeric fraction in BIAcore analysis 2) scFv: EVQLVESGGGLVQPGGSLRLSCAASGFTFSVMKMSWVRQAPGKGLEWVSAISGSGGSTYYADSVKGRFTISRDNSKNTLYLQMNSLRAEDTAVYYCAKSTHLYLFDYWGQGTLVTVSSGGGGSGGGGSGGGGSGGGGSEIVLTQSPGTLSLSPGEKATLSCRASQSVSNAFLAWYQQKPGQAPRLLIYGASSRATGIPDRFSGSGSGTDFTLTISRLEPEDFAVYYCQQMRGRPPTFGQGTKVEIKAAAEQKLISEEDLNGAA is ~7.77
